# experimental_target: bovine serum albumin (BSA) (Bos taurus, UniProt P02769)
# Construct: BSA, molecular weight of 66 kDa, 583 residues; purchased Sigma Aldrich Chemicals (Taufkirchen, Germany)
# Sequence (P02769 25-607): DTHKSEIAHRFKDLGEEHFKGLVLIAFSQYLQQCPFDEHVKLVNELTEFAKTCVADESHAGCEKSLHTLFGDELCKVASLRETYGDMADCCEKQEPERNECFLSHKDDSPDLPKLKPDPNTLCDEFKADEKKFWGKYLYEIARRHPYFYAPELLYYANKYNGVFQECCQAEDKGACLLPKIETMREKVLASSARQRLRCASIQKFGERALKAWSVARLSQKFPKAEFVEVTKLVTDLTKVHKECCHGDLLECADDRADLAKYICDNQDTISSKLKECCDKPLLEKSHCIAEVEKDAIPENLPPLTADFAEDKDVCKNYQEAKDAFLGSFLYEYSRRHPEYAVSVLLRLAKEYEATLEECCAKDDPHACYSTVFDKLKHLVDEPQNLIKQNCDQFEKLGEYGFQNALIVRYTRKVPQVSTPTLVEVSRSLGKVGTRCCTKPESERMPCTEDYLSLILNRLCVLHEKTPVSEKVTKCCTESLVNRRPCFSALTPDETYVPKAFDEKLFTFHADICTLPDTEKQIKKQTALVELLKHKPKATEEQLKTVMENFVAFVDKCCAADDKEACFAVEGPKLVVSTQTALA
# experimental_details: High hydrostatic pressure fluorescence titration of ANS with BSA (1-2000 bar)
# Format: binding
# experimental_conditions: Binding constant Kb1, 250 mM Mg(ClO4)2, 15 °C, 500 bar
experimental_endpoint: pKd
Entry type: numeric. Quantity: pKd, the -log10 of concentration in molar units.

Tell me measured pKd for O=S(=O)(O)c1cccc2cccc(Nc3ccccc3)c12 please. 5.15

====

# experimental_target: bovine serum albumin (BSA) (Bos taurus, UniProt P02769)
# Construct: BSA, molecular weight of 66 kDa, 583 residues; purchased Sigma Aldrich Chemicals (Taufkirchen, Germany)
# experimental_details: High hydrostatic pressure fluorescence titration of ANS with BSA (1-2000 bar)
# Format: binding
# experimental_conditions: Binding constant Kb1, 250 mM Mg(ClO4)2, 5 °C, 1500 bar
experimental_endpoint: Kd (nM)
State just the number; it will be interpreted in nM.

Tell me measured Kd for O=S(=O)(O)c1cccc2cccc(Nc3ccccc3)c12 please. 2860

====

# experimental_target: bovine serum albumin (BSA) (Bos taurus)
# Construct: BSA, molecular weight of 66 kDa, 583 residues; purchased Sigma Aldrich Chemicals (Taufkirchen, Germany)
# experimental_details: High hydrostatic pressure fluorescence titration of ANS with BSA (1-2000 bar)
# Assay type: binding
# experimental_conditions: Binding constant Kb1, 250 mM MgSO4, 25 °C, 2000 bar
experimental_endpoint: Kd (nM)
State just the number; it will be interpreted in nM.

Tell me measured Kd for O=S(=O)(O)c1cccc2cccc(Nc3ccccc3)c12 [ANS, 8-anilinonaphthalene-1-sulfonic acid] please. 455

====

# experimental_target: bovine serum albumin (BSA) (Bos taurus)
# Construct: BSA, molecular weight of 66 kDa, 583 residues; purchased Sigma Aldrich Chemicals (Taufkirchen, Germany)
# experimental_details: Steady-state fluorescence titration of ANS with BSA at ambient pressure (binding isotherms)
# experimental_conditions: Binding constant Kb1, 250 mM MgSO4, 5 °C, 1 bar, 10 mM Tris-HCl pH 7.4
# Text: The extent of complex formation between ANS and BSA was followed by means of steady-state fluorescence spectroscopy using a K2 fluorometer from ISS, Inc. (Champaign, IL, USA). […] Once the stoichiometries of the complex in the presence of the salts and at the three different temperatures are known, it is possible to estimate the binding constants, Kb, performing titration experiments by means of steady-state fluorescence spectroscopy. […]
experimental_endpoint: Kd (µM)
State just the number; it will be interpreted in µM.

Tell me measured Kd for O=S(=O)(O)c1cccc2cccc(Nc3ccccc3)c12 please. 1.61

====

# experimental_target: bovine serum albumin (BSA) (Bos taurus)
# Construct: BSA, molecular weight of 66 kDa, 583 residues; purchased Sigma Aldrich Chemicals (Taufkirchen, Germany)
# experimental_details: Steady-state fluorescence titration of ANS with BSA at ambient pressure (binding isotherms)
# experimental_conditions: Binding constant Kb2, 250 mM Mg(ClO4)2, 5 °C, 1 bar, 10 mM Tris-HCl pH 7.4
experimental_endpoint: pKd
Entry type: numeric. Quantity: pKd, the -log10 of concentration in molar units.

Tell me measured pKd for O=S(=O)(O)c1cccc2cccc(Nc3ccccc3)c12 please. 5.28

====

# experimental_target: bovine serum albumin (BSA) (Bos taurus, UniProt P02769)
# Construct: BSA, molecular weight of 66 kDa, 583 residues; purchased Sigma Aldrich Chemicals (Taufkirchen, Germany)
# experimental_details: High hydrostatic pressure fluorescence titration of ANS with BSA (1-2000 bar)
# Format: binding
# experimental_conditions: Binding constant Kb1, 250 mM Mg(ClO4)2, 5 °C, 500 bar
experimental_endpoint: Kd (µM)
State just the number; it will be interpreted in µM.

Tell me measured Kd for O=S(=O)(O)c1cccc2cccc(Nc3ccccc3)c12 please. 3.13

====

# experimental_target: bovine serum albumin (BSA) (Bos taurus)
# Construct: BSA, molecular weight of 66 kDa, 583 residues; purchased Sigma Aldrich Chemicals (Taufkirchen, Germany)
# experimental_details: High hydrostatic pressure fluorescence titration of ANS with BSA (1-2000 bar)
# Assay type: binding
# experimental_conditions: Binding constant Kb1, 250 mM Mg(ClO4)2, 15 °C, 1000 bar
experimental_endpoint: Kd (µM)
State just the number; it will be interpreted in µM.

Tell me measured Kd for O=S(=O)(O)c1cccc2cccc(Nc3ccccc3)c12 [ANS, 8-anilinonaphthalene-1-sulfonic acid] please. 5.26

====

# experimental_target: bovine serum albumin (BSA) (Bos taurus)
# Construct: BSA, molecular weight of 66 kDa, 583 residues; purchased Sigma Aldrich Chemicals (Taufkirchen, Germany)
# experimental_details: Steady-state fluorescence titration of ANS with BSA at ambient pressure (binding isotherms)
# experimental_conditions: Binding constant Kb1, 250 mM MgSO4, 25 °C, 1 bar, 10 mM Tris-HCl pH 7.4
experimental_endpoint: Kd (nM)
State just the number; it will be interpreted in nM.

# return Kd of O=S(=O)(O)c1cccc2cccc(Nc3ccccc3)c12 (system: bovine serum albumin (BSA) (Bos taurus)) 345

====

# experimental_target: bovine serum albumin (BSA) (Bos taurus, UniProt P02769)
# Construct: BSA, molecular weight of 66 kDa, 583 residues; purchased Sigma Aldrich Chemicals (Taufkirchen, Germany)
# experimental_details: High hydrostatic pressure fluorescence titration of ANS with BSA (1-2000 bar)
# Type: binding
# experimental_conditions: Binding constant Kb1, 250 mM MgCl2, 15 °C, 2000 bar
experimental_endpoint: pKd
Entry type: numeric. Quantity: pKd, the -log10 of concentration in molar units.

Tell me measured pKd for O=S(=O)(O)c1cccc2cccc(Nc3ccccc3)c12 [ANS, 8-anilinonaphthalene-1-sulfonic acid] please. 5.65

====

# experimental_target: bovine serum albumin (BSA) (Bos taurus)
# Construct: BSA, molecular weight of 66 kDa, 583 residues; purchased Sigma Aldrich Chemicals (Taufkirchen, Germany)
# experimental_details: High hydrostatic pressure fluorescence titration of ANS with BSA (1-2000 bar)
# Assay type: binding
# experimental_conditions: Binding constant Kb1, 250 mM Mg(ClO4)2, 25 °C, 1 bar
experimental_endpoint: pKd
Entry type: numeric. Quantity: pKd, the -log10 of concentration in molar units.

# return pKd of O=S(=O)(O)c1cccc2cccc(Nc3ccccc3)c12 [ANS, 8-anilinonaphthalene-1-sulfonic acid] (system: bovine serum albumin (BSA) (Bos taurus)) 5.77

====

# experimental_target: bovine serum albumin (BSA) (Bos taurus)
# Construct: BSA, molecular weight of 66 kDa, 583 residues; purchased Sigma Aldrich Chemicals (Taufkirchen, Germany)
# experimental_details: Steady-state fluorescence titration of ANS with BSA at ambient pressure (binding isotherms)
# experimental_conditions: Binding constant Kb1, 250 mM MgCl2, 25 °C, 1 bar, 10 mM Tris-HCl pH 7.4
experimental_endpoint: Kd (µM)
State just the number; it will be interpreted in µM.

Tell me measured Kd for O=S(=O)(O)c1cccc2cccc(Nc3ccccc3)c12 please. 0.204

====

# experimental_target: bovine serum albumin (BSA) (Bos taurus, UniProt P02769)
# Construct: BSA, molecular weight of 66 kDa, 583 residues; purchased Sigma Aldrich Chemicals (Taufkirchen, Germany)
# experimental_details: High hydrostatic pressure fluorescence titration of ANS with BSA (1-2000 bar)
# Type: binding
# experimental_conditions: Binding constant Kb1, 250 mM MgCl2, 25 °C, 1500 bar
experimental_endpoint: pKd
Entry type: numeric. Quantity: pKd, the -log10 of concentration in molar units.

Tell me measured pKd for O=S(=O)(O)c1cccc2cccc(Nc3ccccc3)c12 [ANS, 8-anilinonaphthalene-1-sulfonic acid] please. 6.69

====

# experimental_target: bovine serum albumin (BSA) (Bos taurus, UniProt P02769)
# Construct: BSA, molecular weight of 66 kDa, 583 residues; purchased Sigma Aldrich Chemicals (Taufkirchen, Germany)
# experimental_details: High hydrostatic pressure fluorescence titration of ANS with BSA (1-2000 bar)
# Type: binding
# experimental_conditions: Binding constant Kb1, 250 mM MgCl2, 15 °C, 1000 bar
experimental_endpoint: Kd
In your response, put the unit directly after the numeric value.

Tell me measured Kd for O=S(=O)(O)c1cccc2cccc(Nc3ccccc3)c12 [ANS, 8-anilinonaphthalene-1-sulfonic acid] please. 2.44 µM

====

# experimental_target: bovine serum albumin (BSA) (Bos taurus, UniProt P02769)
# Construct: BSA, molecular weight of 66 kDa, 583 residues; purchased Sigma Aldrich Chemicals (Taufkirchen, Germany)
# experimental_details: High hydrostatic pressure fluorescence titration of ANS with BSA (1-2000 bar)
# Format: binding
# experimental_conditions: Binding constant Kb1, 250 mM MgSO4, 15 °C, 1000 bar
experimental_endpoint: Kd (nM)
State just the number; it will be interpreted in nM.

Tell me measured Kd for O=S(=O)(O)c1cccc2cccc(Nc3ccccc3)c12 please. 2380
